- measurement-target: wild type PRC2 (wtPRC2) complex (Homo sapiens, UniProt O75530)
- Sequence (O75530 whole entry): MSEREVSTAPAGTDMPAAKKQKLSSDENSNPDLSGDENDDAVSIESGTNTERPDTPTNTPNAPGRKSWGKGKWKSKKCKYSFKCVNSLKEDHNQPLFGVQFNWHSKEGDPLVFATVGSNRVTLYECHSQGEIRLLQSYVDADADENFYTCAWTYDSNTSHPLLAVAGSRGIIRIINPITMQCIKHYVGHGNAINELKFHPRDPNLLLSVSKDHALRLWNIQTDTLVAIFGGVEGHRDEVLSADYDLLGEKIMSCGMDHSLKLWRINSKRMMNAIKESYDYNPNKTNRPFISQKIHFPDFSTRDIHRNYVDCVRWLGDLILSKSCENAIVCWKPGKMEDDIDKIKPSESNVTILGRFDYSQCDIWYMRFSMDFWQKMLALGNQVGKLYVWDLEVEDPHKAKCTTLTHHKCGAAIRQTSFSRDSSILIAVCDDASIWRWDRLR
- Sequence (Q15910 whole entry partner): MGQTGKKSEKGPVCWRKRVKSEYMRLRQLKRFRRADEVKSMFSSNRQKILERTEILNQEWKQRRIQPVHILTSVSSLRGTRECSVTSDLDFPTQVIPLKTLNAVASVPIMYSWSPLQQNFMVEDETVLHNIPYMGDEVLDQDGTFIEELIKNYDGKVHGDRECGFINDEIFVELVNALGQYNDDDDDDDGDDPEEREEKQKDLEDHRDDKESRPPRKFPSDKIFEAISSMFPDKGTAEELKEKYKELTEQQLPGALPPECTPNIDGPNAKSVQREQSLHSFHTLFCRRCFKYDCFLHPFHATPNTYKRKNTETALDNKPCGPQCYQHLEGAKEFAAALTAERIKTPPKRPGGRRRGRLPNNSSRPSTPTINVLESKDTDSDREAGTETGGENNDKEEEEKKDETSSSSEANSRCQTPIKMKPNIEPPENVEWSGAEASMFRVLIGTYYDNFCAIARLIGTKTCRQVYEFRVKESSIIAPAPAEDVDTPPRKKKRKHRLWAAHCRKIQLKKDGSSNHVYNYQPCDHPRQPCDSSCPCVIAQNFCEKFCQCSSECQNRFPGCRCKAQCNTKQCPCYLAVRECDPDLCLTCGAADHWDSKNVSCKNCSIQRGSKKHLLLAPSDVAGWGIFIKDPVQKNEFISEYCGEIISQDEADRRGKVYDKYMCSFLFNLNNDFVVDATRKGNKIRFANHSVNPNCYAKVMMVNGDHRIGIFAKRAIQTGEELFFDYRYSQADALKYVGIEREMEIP
- Sequence (Q15022 whole entry partner): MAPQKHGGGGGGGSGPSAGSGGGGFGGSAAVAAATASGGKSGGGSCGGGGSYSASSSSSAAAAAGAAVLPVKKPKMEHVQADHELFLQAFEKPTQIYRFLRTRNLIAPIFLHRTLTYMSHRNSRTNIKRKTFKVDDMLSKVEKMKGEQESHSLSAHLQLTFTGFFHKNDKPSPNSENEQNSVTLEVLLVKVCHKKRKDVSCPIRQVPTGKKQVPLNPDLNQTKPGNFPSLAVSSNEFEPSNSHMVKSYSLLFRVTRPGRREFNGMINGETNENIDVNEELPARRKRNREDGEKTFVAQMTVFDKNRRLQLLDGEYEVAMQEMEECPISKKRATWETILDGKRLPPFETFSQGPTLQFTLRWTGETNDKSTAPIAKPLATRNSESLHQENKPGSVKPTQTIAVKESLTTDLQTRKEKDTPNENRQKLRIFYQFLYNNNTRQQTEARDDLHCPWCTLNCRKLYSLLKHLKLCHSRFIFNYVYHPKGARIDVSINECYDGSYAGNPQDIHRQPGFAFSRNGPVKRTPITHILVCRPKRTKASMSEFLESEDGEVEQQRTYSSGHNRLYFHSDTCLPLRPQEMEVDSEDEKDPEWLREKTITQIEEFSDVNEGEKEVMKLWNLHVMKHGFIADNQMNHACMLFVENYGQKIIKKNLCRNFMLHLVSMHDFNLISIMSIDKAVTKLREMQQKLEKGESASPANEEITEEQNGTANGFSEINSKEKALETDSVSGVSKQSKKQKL
- Sequence (Q09028 whole entry partner): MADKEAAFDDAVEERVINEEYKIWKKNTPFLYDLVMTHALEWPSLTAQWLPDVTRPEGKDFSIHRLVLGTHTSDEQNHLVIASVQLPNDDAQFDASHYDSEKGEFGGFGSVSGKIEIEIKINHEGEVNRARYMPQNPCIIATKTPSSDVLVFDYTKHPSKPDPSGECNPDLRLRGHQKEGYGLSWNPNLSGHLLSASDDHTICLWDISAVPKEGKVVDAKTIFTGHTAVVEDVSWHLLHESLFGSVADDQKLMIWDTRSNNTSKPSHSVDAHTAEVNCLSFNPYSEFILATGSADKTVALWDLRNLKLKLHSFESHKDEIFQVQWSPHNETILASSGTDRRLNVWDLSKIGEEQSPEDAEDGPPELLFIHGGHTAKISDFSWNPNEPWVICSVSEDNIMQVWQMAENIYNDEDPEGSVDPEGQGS
- Sequence (Q6ZN18 whole entry partner): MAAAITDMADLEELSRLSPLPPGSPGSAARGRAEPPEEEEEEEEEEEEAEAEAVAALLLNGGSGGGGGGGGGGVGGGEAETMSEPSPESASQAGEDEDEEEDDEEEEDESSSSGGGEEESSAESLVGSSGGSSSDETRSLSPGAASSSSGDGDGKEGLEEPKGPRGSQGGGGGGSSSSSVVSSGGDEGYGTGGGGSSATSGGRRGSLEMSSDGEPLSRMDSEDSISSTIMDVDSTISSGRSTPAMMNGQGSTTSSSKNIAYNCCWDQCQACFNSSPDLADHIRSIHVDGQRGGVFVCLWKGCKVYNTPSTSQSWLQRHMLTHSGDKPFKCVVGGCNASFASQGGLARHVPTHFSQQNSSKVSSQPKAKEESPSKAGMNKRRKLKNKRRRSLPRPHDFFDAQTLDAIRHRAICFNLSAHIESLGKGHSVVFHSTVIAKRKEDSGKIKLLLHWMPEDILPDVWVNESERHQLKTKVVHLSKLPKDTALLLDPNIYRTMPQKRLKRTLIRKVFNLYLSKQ
- protocol-notes: EED LC-MS assay (SAH production by PRC2)
- Type: biochemical
- experimental-conditions: PRC2 LC-MS assay; read-out: (b) IC50 EED LC-MS Qualified
The following compounds are shown together with reported IC50 values.
Output spec: scalar in nM, unitless text.

COc1cccc(F)c1CNc1ccc(-c2cnccc2CO)c2nncn12    24.5

Pending compound:
What the record says about `COc1cccc(F)c1CNc1ccc(-c2cnc(OC(F)F)cc2C)c2nncn12` : IC50 is 48.3

---

- measurement-target: EED (1-441)-His protein (Homo sapiens, UniProt O75530)
- Construct: 30 nM EED (1-441)-His protein
- protocol-notes: EED-H3K27Me3 peptide competition binding assay by AlphaScreen
- experimental-conditions: read-out: (a) IC50, EED Alphascreen binding Qualified
readout: log10(IC50) (log10 of the value in nM)
Note the log scale: values are log10 of IC50 expressed in nM.

Solved entries:
COc1ccccc1CNc1ccc(-c2cncnc2)c2nncn12    1.78
COc1c(F)cccc1CNc1ccc(-c2cccnc2)c2nncn12    3.10
COc1cccc(F)c1CNc1ccc(-c2cnc(N(C)C)nc2)c2nncn12    2.07

Memo: `COc1c(F)cccc1CNc1ccc(-c2ccc(S(C)(=O)=O)cc2)c2nncn12` , reported log10(IC50): 2.83

// field: log10(IC50); key: `COc1ccccc1CNc1ccc(-c2ccc(S(=O)(=O)N3CCN(C)CC3)cc2)c2nncn12` ; value = 1.91

For this compound ( `COc1ccccc1CNc1ccc(-c2ccc(S(N)(=O)=O)cc2)c2nncn12` ), measured log10(IC50) is 1.66

For this compound ( `COc1c(F)cccc1CNc1ccc(-c2ccc(CN(C)C)cc2)c2nncn12` ), measured log10(IC50) is 2.34

---

- measurement-target: wild type PRC2 (wtPRC2) complex (Homo sapiens, UniProt O75530)
- protocol-notes: EED LC-MS assay (SAH production by PRC2)
- Assay type: biochemical
- experimental-conditions: PRC2 LC-MS assay; read-out: (b) IC50 EED LC-MS Qualified
readout: IC50 (nM)
Note: unit nM is implicit; provide only the numeric part.

CCOc1ncc(-c2ccc(NCc3c(F)cc(F)cc3OC)n3cnnc23)c(C)n1    492

The recorded IC50 for entry `COc1cccc(F)c1CNc1ccc(-c2ccc(CCC(=O)N(C)C)nc2)c2nncn12` equals 149

According to the records, this compound `COc1cccc(F)c1CNc1ccc(-c2cncc(O)c2)c2nncn12` displays IC50 of 467

`COc1cccc(F)c1CNc1ccc(-c2ccc(N(C)C)nc2)c2nncn12` yielded IC50 of 136

The compound `COc1cccc(F)c1CNc1ccc(-c2cc(Cl)cnc2C)c2nncn12` showed IC50 equal to 71.6

---

- measurement-target: EED (1-441)-His protein (Homo sapiens, UniProt O75530)
- Construct: 30 nM EED (1-441)-His protein
- protocol-notes: EED-H3K27Me3 peptide competition binding assay by AlphaScreen
- experimental-conditions: read-out: (a) IC50, EED Alphascreen binding Qualified
- Experimental: EED-H3K27Me3 Peptide Competition Binding Assay by AlphaScreen (α-Screen) To assess the compounds' potency in the EED-H3K27Me3 competition binding assay, compounds were serially diluted 3-fold in DMSO to obtain a total of twelve concentrations. Then compounds at each concentration (75 nL of each) were transferred by Mosquito into a 384-well Perkin Elmer ProxiPlate 384 plus plates. […]
Below, each of the molecules is paired with its reported log10 IC50 value.
Response schema: value (number) is log10 of IC50 in units of nM.

COc1cc(F)ccc1CNc1ccc(-c2cccnc2)c2nncn12    2.21
CCS(=O)(=O)c1ccc(-c2ccc(NCc3ccccc3OC)n3cnnc23)cc1    1.52
COc1ccccc1CNc1ccc(-c2ccc(C(=O)N(C)C)cc2F)c2nncn12    1.54
COc1ccccc1CNc1ccc(-c2ccc(CN(C)C)cc2)c2nncn12    1.17
COc1ccccc1CNc1ccc(-c2ccc(C(C)N3CCCC3)cc2)c2nncn12 (stereo not drawn)    1.24

get_value(item= `CN(C)Cc1ccc(-c2ccc(NCc3ccc(F)cc3)n3cnnc23)cc1` , readout=log10 IC50) returns 3.18

log10 IC50 reading for `COc1cccc(F)c1CNc1ccc(-c2ccc(NS(C)(=O)=O)c(F)c2)c2nncn12` : 1.67

Note to self: log10 IC50 recorded for `CN(C)Cc1ccc(-c2ccc(NCc3ccccc3F)n3cnnc23)cc1` was 3.00

Per the records, this molecule ( `COc1cccc(F)c1CNc1ccc(-c2ccc(S(C)(=O)=O)nc2)c2nncn12` ) has log10 IC50 equal to 0.99

Lookup result for `COc1ccccc1CNc1ccc(-c2ccc(CN(C)C)cc2F)c2nncn12` ; measured log10 IC50: 1.58

All figures here come from patent US10689378B2.
